Provide the recorded k2 for the entries that follow.
target_or_test_system: T1, Caspase-3 (UniProt P42574 29-277)
T1 sequence (looked up): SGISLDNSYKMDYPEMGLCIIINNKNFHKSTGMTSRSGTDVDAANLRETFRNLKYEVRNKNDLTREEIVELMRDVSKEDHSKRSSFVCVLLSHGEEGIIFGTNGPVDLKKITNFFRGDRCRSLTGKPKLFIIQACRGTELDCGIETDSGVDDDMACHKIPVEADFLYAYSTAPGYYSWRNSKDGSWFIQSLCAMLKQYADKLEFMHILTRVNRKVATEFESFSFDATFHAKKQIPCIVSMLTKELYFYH
assay_notes: cell-based or functional assay
Numbered stars: 1 amine (or outer) side, 2 acyl side, 3 side chain; on linkers, the order of the positions; unused ones are H or OH. Square brackets hold non-standard residues; d marks the D form. * marks the point of attachment. AAsp = aza-Asp, O=C(N(CC(=O)[*:3])N[*:1])[*:2]; CH═CH‑COOCH2Ph = O=C(/C=C/*)OCc1ccccc1; CH═CH‑COOEt = CCOC(=O)/C=C/*; Cbz = O=C(OCc1ccccc1)*
Answers are plain numbers, in M⁻¹ s⁻¹.

Cbz-DEV[AAsp]-{CH═CH‑CO‑tetrahydroquinoline} [Cbz-Asp-Glu-Val-AAsp-CH═CH-CON-tetrahydroquinoline] ... 2.3e+06
Cbz-LET[AAsp]-{CH═CH‑COOCH2Ph} (SMILES CC(C)C[C@H](NC(=O)OCc1ccccc1)C(=O)N[C@@H](CCC(=O)O)C(=O)N[C@H](C(=O)NN(CC(=O)O)C(=O)/C=C/C(=O)OCc1ccccc1)[C@@H](C)O) [Cbz-Leu-Glu-Thr-AAsp-CH═CH-COOCH2Ph] ... 4600
Cbz-Val-[AAsp]-{CH═CH‑CONH‑nBu} [Cbz-Val-AAsp-CH═CH-CONH-nBu] ... 184
Cbz-Val-[AAsp]-{CH═CH‑COOEt} [Cbz-Val-AAsp-CH═CH-COOEt] ... 8000

Please turn your attention to the following entry.
Fill in: k2 of Cbz-DEV[AAsp]-{cis‑CH═CH‑COOEt} [Cbz-Asp-Glu-Val-AAsp-CH═CH-COOEt (cis)] is ___ 1.06e+06
